Reported z-score is given for each of the following sequences.
- test summary: Components of the Cytosolic LPS Sensing Pathway: Gene Identification via Genome-wide siRNA Screen
- particulars: RAW264.7 macrophages, IL-1a HTRF, actives lie on both sides, screened at 100 nM (by protocol), cells primed 5 h with Pam3CSK4 first
Among all 53,000 sequences or so, about 3,700 (7%) were called active. This excerpt belongs to a sample that is enriched for actives.
Just the number, please.

GCUCAGUAAUCUGAGGCCATT against Lox    -2.03
GGAAGAUAAAUGUCACAAATT against AA792892    0.392
GGAUGGACUUCGUCAUGAATT against Cplx2    0.55
CGUAGAGAUCAGUUCAAUGTT against Clock    -1.36
GGUGUAAGAGCUUUGGCCUTT against Gm5420    2.35
CCUUCUCUGCCUCGAUGAUTT against Cox14    -1.23
GGACAAAUUUCUUUUCCUUTT against Atp10a    -0.448
CCUCUCUAGGCCAUGUUCUTT against 1110008P14Rik    0.381
GGAAAACCUUGGACAGGAGTT against Olfr876    -0.267
GGUUACCUAUUGGAUGACATT against Muc19    -1.43

Q. Give the measured z-score of GGAAAAUCAAGACCUAUGGTT against Obox6 .
A. -1.37

Q. Give the measured z-score of GGGUUGCCACAUGUUAUAUTT against Smad2 .
A. -0.0821

Q. Give the measured z-score of GGAGCUUCUUGACCUCGUGTT against Frmd4a .
A. 0.184

Q. Give the measured z-score of GGAUGAAGACCUUGAACGGTT against Slc28a3 .
A. 1.48

Q. Give the measured z-score of CCAAACGAAGGAAGCUGACTT against Taf6l .
A. -2.09

---

- test summary: Components of the Cytosolic LPS Sensing Pathway: Gene Identification via Genome-wide siRNA Screen
- particulars: RAW264.7 macrophages, IL-1a HTRF, actives lie on both sides, screened at 100 nM (by protocol), cells primed 5 h with Pam3CSK4 first
Out of some 53,000 sequences screened, about 3,700 (7%) were called active. This excerpt belongs to a sample that is enriched for actives.
quantity kind: z-score

GCUUGACCUUUUUACUCCUTT against Siglece    0.262 (inactive)
GGAGCUGGUGUUGAGUGAGTT against Slfnl1    -1.81 (inactive)
GGAGAAAUGUCAGUGCGAUTT against Mlc1    0.431 (inactive)
GGACUUUGAAAAGAGAAUUTT against Polb    -0.213 (inactive)
GGAAGAUAACCAUUUUGAATT against Setd4    -0.777 (inactive)
GGAAGGUGGAGAAAAUCCGTT against Hhipl2    0.585 (inactive)

Q. Give the measured z-score of GCCGAUGACACUAUCUACCTT against Cryz .
A. 0.465 (inactive)

---

- test summary: Components of the Cytosolic LPS Sensing Pathway: Gene Identification via Genome-wide siRNA Screen;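 note: robust z of the log signal after scaling to non-targeting control siRNA wells of the plate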
- particulars: RAW264.7 macrophages, IL-1a HTRF, actives lie on both sides, screened at 100 nM (by protocol), cells primed 5 h with Pam3CSK4 first
The campaign covered roughly 53,000 sequences. About 3,700 (7%) were called active. Shown is part of a subset that was picked to be rich in actives.
quantity kind: z-score
Just the number, please.

In the examples that follow, each entry is paired with its recorded z-score.
GCUGCCUCUUUCUUUGCUUTT against Pllp    -0.769
GUAAUCACCUUAAAGAUGUTT against Cebpb    1.32
GCACUGCCAGAGGUUCUGUTT against U90926    -0.107
GCGUAUACCAUGCAGAUAUTT against Sigmar1    1.05
GGUGUAGGCUGUCCAAUAATT against Rtel1    0.74
GGGAUCAAAACAUACUGUGTT against Klra4    0.0891
GGUUAUCUUGAAUAAAGCUTT against Zfp346    -0.303
CCUACAGUAUGUGGCAGAUTT against Grb7    -1.49
GGCUUUUCAGCAGGUUUAATT against Ube2g1    5.04
GCAAGAAAAGGUGCUAUCUTT against Med4    -0.314

Q. Give the measured z-score of CGAUGGUCGAAGGAUUGUCTT against Tnfsf4 .
A. -0.837

Q. Give the measured z-score of CCGUCGUACACAAUCUUACTT against Fgfr4 .
A. -0.512

Q. Give the measured z-score of GCCGGGACCAUGAUUAUAGTT against Rbm10 .
A. 2.7

Q. Give the measured z-score of GGGACUCUUCUACGAGUUUTT against Lims2 .
A. 0.836

Q. Give the measured z-score of GCCGUUUCGUGUGGUAUUUTT against Tm4sf1 .
A. -2.64

Q. Give the measured z-score of CGUGAACUUUCAGAGCAGGTT against Rrp36 .
A. 0.124

Q. Give the measured z-score of CCCAUGUAAGGAUGUGUCGTT against Frmd5 .
A. 0.761

---

Reported z-score is given for each of the following sequences.
- test summary: Components of the Cytosolic LPS Sensing Pathway: Gene Identification via Genome-wide siRNA Screen;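 note: robust z of the log signal after scaling to non-targeting control siRNA wells of the plate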
- particulars: RAW264.7 macrophages, IL-1a HTRF, actives lie on both sides, screened at 100 nM (by protocol), cells primed 5 h with Pam3CSK4 first
Among all 53,000 sequences or so, about 3,700 (7%) were called active. Many of the other results were omitted from the sample, so actives are more common in it than they were.
Just the number, please.

In the examples that follow, each entry is paired with its recorded z-score.
CCGGGAAAUUCUGUUAGCCTT against Pla2g1b    -1.95
GGAUGUGAUGACUCAUUUUTT against Zbtb8os    0.976
GGAGAUGAGGUGAAGUGGATT against Acsm4    -0.213
CCUGUGAGGCCAUUGAUUCTT against Acsbg1    -1.33

Q. Give the measured z-score of GGAAAAAUGGUCUGUAAAATT against Adck2 .
A. 0.508

Q. Give the measured z-score of CCCACCACUAUUUAUAUGATT against Dlg2 .
A. -0.17

Q. Give the measured z-score of GGUUAAAUCGAUUUUGCAUTT against Acbd5 .
A. -0.185

Q. Give the measured z-score of GGACCAAGUGGAGAAAGAATT against Nkx6-1 .
A. -0.622

Q. Give the measured z-score of GCAACACGGCGGAAUAAAGTT against Washc1 .
A. -0.336

---

- test summary: Components of the Cytosolic LPS Sensing Pathway: Gene Identification via Genome-wide siRNA Screen;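 note: robust z of the log signal after scaling to non-targeting control siRNA wells of the plate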
- particulars: RAW264.7 macrophages, IL-1a HTRF, actives lie on both sides, screened at 100 nM (by protocol), cells primed 5 h with Pam3CSK4 first
The whole screen tested about 53,000 sequences, of which about 3,700 (7%) were called active. Shown is part of a subset that was picked to be rich in actives.
The label depends only on z-score: class 1 if it is at least -0.3, class 0 if it is smaller.

GGGUGUCUUACACCUUACATT against Sertad2    class 0
GGAUAUGACUAGGUGAAUUTT against Ebf3    class 0
GGACAAUCUGAUUCAAGUATT against Ms4a2    class 1
GGACUUUCUAAGGGUAAAATT against Luzp1    class 1
GCCUAGCUGAAAACGUGUCTT against Cog4    class 1
GGAUCAUCUAUACAGCACATT against Tgfb1i1    class 0
GCCCAUUGUUACCUUGUACTT against Klb    class 0
GGUGUUCUUGAGCUGUGAGTT against Igfbp7    class 0
GCAGUGCUCUUUAGCAUAATT against Zfp689    class 1
GGCUGAAGAUCACCAAGAATT against Neurl1a    class 0

Q. hey, is z-score for this one >= -0.3? GGUGGGAAGAUAGAUAAAATT against Mamstr
A. class 1

Q. hey, is z-score for this one >= -0.3? GCUAAGUUGGAAUUUCCACTT against Chtop
A. class 1

Q. hey, is z-score for this one >= -0.3? GGCUGACUGGACAAUAAAGTT against Krt85
A. class 0

Q. hey, is z-score for this one >= -0.3? GGUUCGAUGUCCAGUCACUTT against Ppp2ca
A. class 0

Q. hey, is z-score for this one >= -0.3? GCCUUAACUAUAGUCCAGATT against Scn7a
A. class 0

Q. hey, is z-score for this one >= -0.3? GGCAACUAUAAGUACAUAGTT against Gsta3
A. class 1

Q. hey, is z-score for this one >= -0.3? GGCCCUCAUGAUUGCUAUGTT against Nek8
A. class 0

---

- test summary: Components of the Cytosolic LPS Sensing Pathway: Gene Identification via Genome-wide siRNA Screen;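 note: robust z of the log signal after scaling to non-targeting control siRNA wells of the plate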
- particulars: RAW264.7 macrophages, IL-1a HTRF, actives lie on both sides, screened at 100 nM (by protocol), cells primed 5 h with Pam3CSK4 first
The whole screen tested about 53,000 sequences, of which about 3,700 (7%) were called active. This is one part of a sample in which actives are shown more often than they occur.
quantity kind: z-score
Just the number, please.

In the examples that follow, each entry is paired with its recorded z-score.
CCCUCCAUGGAAAUGACAUTT against Slit3    2.4
GGAGCACAAUUCAAAUUCATT against Zbtb6    2.06
GCAUUAAGCAAUGGCAUCATT against Cbfa2t2    0.21
GGAGAAAGGUGCUUCCGAUTT against Mrpl19    0.47
GGAGGAGCUUAGCCCUUUUTT against Bad    2.28

Q. Give the measured z-score of CCUGGGCCUUAACAAGAAGTT against Upf1 .
A. -1.32

Q. Give the measured z-score of GCAGAAGUCUCGUAUCCAGTT against Arl6ip4 .
A. 0.337

Q. Give the measured z-score of GGUUUAAUGUUAUAUACGGTT against Olfr606 .
A. 2.43

Q. Give the measured z-score of CGGUAUCACGGUUAUCCUUTT against Olfr215 .
A. 0.932

Q. Give the measured z-score of CCACAGUAUCAUGUAACUATT against Il1a .
A. -2.23

Q. Give the measured z-score of GGCUAUUUUGCUGUACCUCTT against Gbgt1 .
A. 0.589

Q. Give the measured z-score of GGCAUCAAAGACAAUACAATT against Vmn1r15 .
A. 3.19

Recorded values, source PubChem BioAssay AID1508600.
